Numbers sourced from PubChem BioAssay AID1963842.

System: 677734-321-R-J1-PDC complex spheroid viability;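 further: spheroids exposed to compounds for one week; 100% = vehicle DMSO treated spheroids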
Assay: Anticancer human tumor 677734-321-R-J1-PDC patient-derived soft tissue sarcoma cell line growth inhibition [POLQ]
Conditions: second compound 0.0316 µM; first compound 0.0316 µM; hits give low values
OBSERVABLE: viability, T/C (%)
Form entry: value (%) — number only.

// solved cases for viability, T/C follow
[
  {
    "COMPOUND": "COc1cccc(OCCCN)c1-c1cc(Nc2cnc(C#N)cn2)n[nH]1 + COC1C(OC(N)=O)C(O)C(Oc2ccc3c(O)c(NC(=O)c4ccc(O)c(CC=C(C)C)c4)c(=O)oc3c2C)OC1(C)C",
    "viability, T/C (%)": 12.8
  },
  {
    "COMPOUND": "CNCc1ccc(-c2[nH]c3cc(F)cc4c3c2CCNC4=O)cc1 + Cc1cccc(N(C)C(=O)C2C(O)CCN2c2nc(C)cc(C(F)(F)F)c2C#N)c1",
    "viability, T/C (%)": 107
  },
  {
    "COMPOUND": "CCCS(=O)(=O)Nc1ccc(F)c(C(=O)c2c[nH]c3ncc(-c4ccc(Cl)cc4)cc23)c1F + Nc1ccc(C#CCN(C(=O)Cc2ncc(C(F)(F)F)cc2C(F)(F)F)c2ccc(F)cc2)nn1",
    "viability, T/C (%)": 96.6
  },
  {
    "COMPOUND": "CC[C@@]1(O)C(=O)OCc2c1cc1n(c2=O)Cc2cc3c(CN(C)C)c(O)ccc3nc2-1 + Nc1ccc(C#CCN(C(=O)Cc2ncc(C(F)(F)F)cc2C(F)(F)F)c2ccc(F)cc2)nn1",
    "viability, T/C (%)": 25.9
  },
  {
    "COMPOUND": "C=CCn1c(=O)c2cnc(Nc3ccc(N4CCN(C)CC4)cc3)nc2n1-c1cccc(C(C)(C)O)n1 + Nc1ccc(C#CCN(C(=O)Cc2ncc(C(F)(F)F)cc2C(F)(F)F)c2ccc(F)cc2)nn1",
    "viability, T/C (%)": 102
  }
]

In the following, a different compound is considered.
// query For the compound C#Cc1c(F)ccc2cc(O)cc(-c3ncc4c(N5CC6CCC(C5)N6)nc(OCC56CCCN5CC(F)C6)nc4c3F)c12 (stereo unspecified) + COC1C(OC(N)=O)C(O)C(Oc2ccc3c(O)c(NC(=O)c4ccc(O)c(CC=C(C)C)c4)c(=O)oc3c2C)OC1(C)C , report viability, T/C.
// result 108
